Target: T1, PPR2.0 t4 (synthetic)
T1 chain: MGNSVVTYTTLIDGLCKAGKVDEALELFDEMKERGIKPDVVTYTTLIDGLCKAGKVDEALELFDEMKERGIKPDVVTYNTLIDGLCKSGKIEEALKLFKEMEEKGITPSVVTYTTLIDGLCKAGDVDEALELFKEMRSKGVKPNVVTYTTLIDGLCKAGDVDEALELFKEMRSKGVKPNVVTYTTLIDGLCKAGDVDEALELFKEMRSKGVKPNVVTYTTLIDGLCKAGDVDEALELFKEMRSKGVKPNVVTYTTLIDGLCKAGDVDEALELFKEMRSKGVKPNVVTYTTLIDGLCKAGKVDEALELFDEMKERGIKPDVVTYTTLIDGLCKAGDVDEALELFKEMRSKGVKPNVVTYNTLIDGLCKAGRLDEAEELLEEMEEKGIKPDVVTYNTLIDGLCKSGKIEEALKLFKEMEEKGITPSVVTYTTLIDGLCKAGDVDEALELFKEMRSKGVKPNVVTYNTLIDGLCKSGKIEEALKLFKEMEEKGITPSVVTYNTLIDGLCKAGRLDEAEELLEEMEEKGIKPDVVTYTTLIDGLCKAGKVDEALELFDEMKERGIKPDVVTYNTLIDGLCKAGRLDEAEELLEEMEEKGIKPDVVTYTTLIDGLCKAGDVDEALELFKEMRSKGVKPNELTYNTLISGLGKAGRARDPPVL
Assay: EMSA; 20 mM Tris-HCl pH 8.0, 150 mM NaCl, 0.5% NP-40, 1 mM DTT, 1 mM EDTA; 20 nM RNA
Settings: tags: N-terminal SBP, C-terminal His6, kept; label: biotin
Measure: pKd
Entry type: numeric. Quantity: pKd, the -log10 of concentration in molar units.

Ask: Which pKd value belongs to GACAUGCGGCAAAAAGAUCACUGUAGACUG (ssRNA) [Probe_t4] ?
Reply: 8.59
